- EXPERIMENTAL PROTOCOL: chemical genetic growth profiling, strain panel (AID 1159580);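 further: tested at 20 µM; growth read once vehicle control cultures reached saturation at 30 °C; 1 = growth at the plate median or of vehicle wells; lower values mean less growth of the strain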
- TEST SETTINGS: S. cerevisiae deletion strains, growth OD, locus YOR329C, strain SCD5, hits give low values
The campaign covered roughly 5,500 compounds. About 2,000 (36%) were called active. Roughly 18% stayed inconclusive and do not appear here. This is one part of the list.
ENDPOINT: normalized growth
Output spec: single numeric token, no unit.

Sample answers from the record:
Quote normalized growth reported for `CC(=O)C(Sc1nc2ccccc2s1)C(C)=O` please. 0.925

Quote normalized growth reported for `CCc1cc2c(cc1-c1csc(C/C(N)=N\O)n1)C(C)(C)CCC2(C)C` please. 0.981

Quote normalized growth reported for `C/C(=N/OC(=O)Nc1ccc(Cl)cc1)c1ccc2c(c1)CCO2` please. 0.956

Quote normalized growth reported for `Cc1nc(C(F)(F)F)c(C(=O)O/N=C(/N)c2ccc(Cl)cc2)s1` please. 0.974

Quote normalized growth reported for `CCOC(=O)NC(=S)NC12CC3CC(CC(C3)C1)C2` please. 0.984

More entries:
Quote normalized growth reported for `N/C(=N/OC(=O)c1ccc(Cl)cc1)c1ccc(F)cc1F` please. 0.899

Quote normalized growth reported for `O=C1/C(=C/c2c(F)cccc2Cl)Cc2ccccc21` please. 0.963

Quote normalized growth reported for CCCC1c2ccsc2CCN1C(=S)Nc1ccc(Cl)cc1Cl (stereo unspecified) please. 0.974
